Recorded pEC50, one value per entry.
System: CEM cells HIV-1 protection, formazan growth assay
TEST METHOD NOTES: NCI AIDS Antiviral Assay
pEC50: −log10 of the molar value.

Req: Query pEC50 on CEM cells HIV-1 protection, formazan growth assay for C[C@H]1C=C2[C@@H]3CC(C)(C(=O)O)CC[C@]3(C)CC[C@]2(C)[C@]2(C)CC[C@H]3C(C)(C)[C@@H](OC(=O)c4cccc5c(=O)c6ccccc6[nH]c45)CC[C@]3(C)[C@@H]12 (some centres undefined)
Resp: < 4.00

Req: Query pEC50 on CEM cells HIV-1 protection, formazan growth assay for CNC(=O)OCc1c(COC(=O)NC)c2n(c1C)CS(=O)(=O)C2
Resp: < 3.70

Req: Query pEC50 on CEM cells HIV-1 protection, formazan growth assay for O=C(CNc1ccccc1C(=O)O)Nn1cnc2ccc(S(=O)(=O)Nc3ccccc3C(=O)O)cc2c1=O
Resp: < 3.70

Req: Query pEC50 on CEM cells HIV-1 protection, formazan growth assay for CCN(CC)C(=O)c1cc(=O)c(C)c2oc3c(C)c(O)c(N)c(C(=O)N(CC)CC)c3nc1-2
Resp: < 3.70

Req: Query pEC50 on CEM cells HIV-1 protection, formazan growth assay for CC[C@@H]1ON(C)[C@H]2CN(C)C(=O)[C@@H]12
Resp: < 3.70

Req: Query pEC50 on CEM cells HIV-1 protection, formazan growth assay for O=c1[nH]c(=O)n(C2CC(F)C(CO)O2)cc1C(OCC(F)(F)F)OCC(F)(F)F (centres undefined)
Resp: 4.43

Req: Query pEC50 on CEM cells HIV-1 protection, formazan growth assay for O=c1oc2ccccc2c(O)c1C(c1ccc(/C=C/c2ccccc2)cc1)c1c(O)c2ccccc2oc1=O
Resp: < 3.70

Req: Query pEC50 on CEM cells HIV-1 protection, formazan growth assay for CCc1nnc(CC)n1N1C(=O)CCC1=O
Resp: < 3.70

We now examine a further molecule.
Req: Query pEC50 on CEM cells HIV-1 protection, formazan growth assay for CCCCN(CCCC)C(=S)S
Resp: < 3.70

====

Recorded IC50, one value per entry.
System: CEM cells HIV-1 protection, formazan growth assay
TEST METHOD NOTES: NCI AIDS Antiviral Assay
RECORDED CONDITIONS: measured here: growth of uninfected CEM cells
Just the number please, in µM, no unit attached.

// known answers, use as guide
Req: # IC50 lookup, item COC1OC(CS)C(N)C1OS(C)(=O)=O (stereo unspecified)
Resp: 155

Req: # IC50 lookup, item O=C(NCCCl)N1CCC(CN=c2cc3n(-c4ccc(Cl)cc4)c4ccccc4nc-3cc2Nc2ccc(Cl)cc2)CC1
Resp: 17

Req: # IC50 lookup, item CCOc1cnn(-c2ccccc2)c(=O)c1SCc1ccccc1
Resp: 56.2

Req: # IC50 lookup, item S=C(Nc1ccc(N=Nc2ccccc2)cc1)SCc1ccc2c(c1)OCO2
Resp: 10.7

More entries:
Req: # IC50 lookup, item N#C/C(=C\c1cccc([N+](=O)[O-])c1)C(=O)c1ccccc1
Resp: 40.7

====

Tested on: CEM cells HIV-1 protection, formazan growth assay
TEST METHOD NOTES: NCI AIDS Antiviral Assay;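 active means compounds giving half or more protection of infected cells from virus-caused growth loss, again on retest; inactive means the rest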
Output constraint: value belongs to true (1) = active, false (0) = inactive

// below: answered molecules
Req: Fill in: this test's call for O=c1cn[nH]c2ccccc12 is ___
Resp: false (0)

Req: Fill in: this test's call for O=C(O)C(O)(c1ccccc1)c1ccsc1 (stereo not given) is ___
Resp: false (0)

Req: Fill in: this test's call for CCO[C@H]1OC(=O)[C@@H]2C(c3ccc(F)cc3)=NO[C@H]12 is ___
Resp: false (0)

Req: Fill in: this test's call for Nc1nn2cc3c(nc2c1N=Nc1ccc(Cl)cc1)CCC3 is ___
Resp: false (0)

Next up:
Req: Fill in: this test's call for O=c1oc2ccccc2c2c1SC(c1ccncc1)C2 (stereo not given) is ___
Resp: false (0)
